# Tested on: APAE001 (ATCC27853)
# measurement_notes: MIC broth microdilution, APAE001
# Format: cell-based, P. aeruginosa
# condition_set: Pseudomonas aeruginosa, ATCC27853, read-out: MIC APAE001, APAE001 is ATCC27853
endpoint: MIC

// known answers, use as guide
>  <molecule>
CC(C)(O)[C@H](NC(=O)c1ccc(C#CC#Cc2ccc(CNC3CC3)cc2)cc1)C(=O)NO

>  <MIC>
< 2 µg/mL

$$$$
>  <molecule>
O=C(CNC1CC1)NC[C@H](NC(=O)c1ccc(C#C/C=C/c2ccc(CO)cc2)cc1)C(=O)NO

>  <MIC>
2 to 16 µg/mL

$$$$
>  <molecule>
C[C@H](O)[C@H](NC(=O)c1ccc(C#C/C=C/c2ccc(CN3CCOCC3)cc2)cc1)C(=O)NO

>  <MIC>
2 to 16 µg/mL

$$$$

Determine its reported MIC: `C[C@@H](O)[C@H](NC(=O)c1ccc(C#CC#Cc2ccc(C(F)(F)F)cc2)cc1)C(=O)NO` 2 to 16 µg/mL

State its MIC: `O=C(NO)[C@@H]1CCN1S(=O)(=O)c1ccc(C#Cc2ccc(CN3CCOCC3)cc2)cc1` > 64 µg/mL

Identify measured MIC associated with CC(C)C(C(=O)NO)C(=O)Nc1ccc(C#Cc2ccc(CN3CCOCC3)cc2)cc1 (stereo not drawn) > 64 µg/mL

Fill in MIC for record C[C@@H](N)[C@H](NC(=O)c1ccc(C#Cc2ccc(CNCC3CCCO3)cc2)cc1)C(=O)NO (stereo partly drawn) < 2 µg/mL

Supply MIC value. Item: `CSC[C@H](NS(=O)(=O)c1ccc(C#Cc2ccc(CN3CCOCC3)cc2)cc1)C(=O)NO` > 64 µg/mL

Identify the reported MIC for the following entry. `CCOCc1ccc(C#Cc2ccc(C(=O)N[C@H](C(=O)NO)[C@@H](C)N)cc2)cc1` < 2 µg/mL
